System: c-Src
Assay Protocol: phosphorylation enrichment, bacterial display (enrichment ratio); higher = better substrate or ligand; peptides without Tyr show the background;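 also: 11-residue human phosphosite peptides and single-mutation variants displayed on the E. coli surface, counted by deep sequencing, each peptide's frequency after selection divided by its frequency in the unselected input library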;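 also: frequency after pTyr selection over input frequency; kinase dosed for 20-30% of maximal phosphorylation in three min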
Value Kind: phosphorylation enrichment
Hey, just send me the number, nothing else.

For reference, reported phosphorylation enrichment for LTFDEYRNISQ [ANXA3_Y216] stands at 0.643

Sample SLMNQYVNKEF [RAB7A_Y28_K32E] ; phosphorylation enrichment observed: 0.459

# phosphorylation enrichment of VNQSGYTLIRK [ATP6V0A2_Y688_R685Q] = 0.418

Summary for this sequence, GRQVIYTENER [GPR143_Y231_G229V] : phosphorylation enrichment is 0.513

Lab book: phosphorylation enrichment of GLDSSYLLRDS [SH2D1A_Y29_G27S] noted as 0.386

For this sequence ( QMVGMYASFFM [AVPR2_Y124_S127F_YF] ), measured phosphorylation enrichment is 8.13

Measured phosphorylation enrichment of HFVDEYDPTIE [KRAS_Y32] : 0.779

----------
Test System: MERTK (UniProt Q12866)
Sequence (Q12866 whole entry, looked up): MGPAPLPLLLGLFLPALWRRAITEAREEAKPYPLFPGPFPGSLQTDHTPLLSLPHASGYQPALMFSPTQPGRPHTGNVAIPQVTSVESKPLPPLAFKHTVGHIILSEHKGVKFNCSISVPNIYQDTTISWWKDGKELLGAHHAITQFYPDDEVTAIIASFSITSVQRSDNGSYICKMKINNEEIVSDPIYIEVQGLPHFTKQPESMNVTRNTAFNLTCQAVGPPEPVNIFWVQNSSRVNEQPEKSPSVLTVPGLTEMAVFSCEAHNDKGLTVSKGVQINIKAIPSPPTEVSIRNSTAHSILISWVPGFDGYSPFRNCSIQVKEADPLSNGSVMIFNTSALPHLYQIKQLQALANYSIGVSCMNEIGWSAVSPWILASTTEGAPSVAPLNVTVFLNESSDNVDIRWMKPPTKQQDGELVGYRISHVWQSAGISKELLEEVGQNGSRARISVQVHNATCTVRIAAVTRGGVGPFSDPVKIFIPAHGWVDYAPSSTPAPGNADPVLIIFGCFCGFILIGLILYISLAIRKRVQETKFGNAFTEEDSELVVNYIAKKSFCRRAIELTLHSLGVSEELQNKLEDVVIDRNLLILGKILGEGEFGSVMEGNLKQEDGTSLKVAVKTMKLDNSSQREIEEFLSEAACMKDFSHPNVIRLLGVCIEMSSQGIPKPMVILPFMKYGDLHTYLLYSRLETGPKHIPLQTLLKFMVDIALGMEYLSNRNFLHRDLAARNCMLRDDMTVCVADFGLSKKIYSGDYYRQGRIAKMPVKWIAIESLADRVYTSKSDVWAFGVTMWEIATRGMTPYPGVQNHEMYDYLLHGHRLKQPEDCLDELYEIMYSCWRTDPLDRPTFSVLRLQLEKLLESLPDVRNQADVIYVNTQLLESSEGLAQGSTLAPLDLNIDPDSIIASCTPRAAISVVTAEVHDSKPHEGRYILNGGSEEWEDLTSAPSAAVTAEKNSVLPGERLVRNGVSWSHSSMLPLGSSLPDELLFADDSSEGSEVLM
Assay Protocol: phosphorylation enrichment, bacterial display (enrichment ratio); higher = better substrate or ligand; peptides without Tyr show the background
Given measured phosphorylation enrichment, output yes if it is greater than or equal to 0.5 and no if not.

# input Hi team, for KDHLDYKYQPR [SOX9_Y172_P170L] , is the recorded phosphorylation enrichment at or above 0.5?
# output no

# input Threshold query (phosphorylation enrichment >= 0.5) on VNKIFYPDFIV [LIG3_Y768_YF]
# output yes

# input Item VEEDTYTMPST [PTK2_Y407_D402V] with phosphorylation enrichment of 0.5 or above?
# output yes

# input Form field: phosphorylation enrichment at least 0.5? Entry: ELAVNYQEQAS [SLC9A9_Y591_I589V]
# output no

# input Does the sequence LHNLFYQLEAE [PKP2_Y616_S615F] have recorded phosphorylation enrichment that is 0.5 or more?
# output yes

# input API: above_or_equal(metric=phosphorylation enrichment, cutoff=0.5) for item LVMFIYVIFGM [SCN1A_Y1684_A1685V]
# output no

# input hey, is phosphorylation enrichment for this one >= 0.5? FKNGDYSEVMK [LCT_Y1638_N1639S]
# output no

# input Has IAAEFYDNLPH [DEGS1_Y284_YF] a recorded phosphorylation enrichment greater than or equal to 0.5?
# output yes

# input Decide: is the reported value of phosphorylation enrichment for TVHCDYLNIPH [TAF1L_Y1385] equal to or greater than 0.5?
# output no

# input Quick check, phosphorylation enrichment >= 0.5? PHIKTYMRPSP [TDP1_Y497]
# output no

# input Would you say FFDANYDGKEF [MAPRE2_Y162_YF] shows phosphorylation enrichment at minimum 0.5?
# output no

# input Given the entry QFQEKYKQVEQ [HCN4_Y531_YF] , answer whether its phosphorylation enrichment meets or surpasses 0.5.
# output yes

# input State whether the measured phosphorylation enrichment reaches 0.5, counting equality as reaching it, for AIIGIYNLRDD [CDH23_Y2949_I2950N]
# output yes

# input Is the recorded value of phosphorylation enrichment equal to or greater than 0.5 for this sequence? GQKVAYGGTED [ALDH3A1_Y305_G309E]
# output no

# input Please indicate if the recorded phosphorylation enrichment for MAFDRYVAVCA [OR52J3_Y125] meets or exceeds 0.5.
# output yes

# input Check the entry CRIELYRIVES [IGFBP1_Y181_V183I] : does phosphorylation enrichment equal or exceed 0.5?
# output no

# input Could you please find out whether RGKDSYETSKL [SPP1_Y225_Q229K] has phosphorylation enrichment that meets 0.5 or exceeds it?
# output yes

# input Test whether the sequence LFLACYCIGGG [UBD_Y161] records phosphorylation enrichment of 0.5 or higher.
# output no

# input Can CGTPDNIAPEI [PRKCG_Y521_Y521N] be said to have phosphorylation enrichment at or above 0.5?
# output no

# input Test whether the sequence EAAFVYAISSA [WNT4_Y113] records phosphorylation enrichment of 0.5 or higher.
# output yes

# input Check the entry VHNLDYFKMTT [FGFR3_Y647_K650M_YF] : does phosphorylation enrichment equal or exceed 0.5?
# output no

# input Please indicate if the recorded phosphorylation enrichment for HYEDGYPGGSD [CTNND1_Y221] meets or exceeds 0.5.
# output yes

# input Hello, I need to know if PLFRKYWPNHI [GREB1L_Y1560_YF] has measured phosphorylation enrichment not below 0.5. Thanks!
# output yes

# input Would you say PFRFIYMAVQH [PTPN11_Y515_Q510P_YF] shows phosphorylation enrichment at minimum 0.5?
# output yes

# input hey, is phosphorylation enrichment for this one >= 0.5? FDEFRYRSVIK [CFTR_Y517_YF]
# output no

# input Form field: phosphorylation enrichment at least 0.5? Entry: LKALHYMVQTS [SACS_Y3367]
# output no

# input Kindly determine if phosphorylation enrichment recorded for FGISGYVVDSV [MAP2K3_Y214_L215V] is above or exactly 0.5.
# output no

# input Please indicate if the recorded phosphorylation enrichment for YFRDGHMPRQY [GSS_Y270_Y270H] meets or exceeds 0.5.
# output no

# input Does STGRSYAGVAV [KLHL3_Y577] have a reported phosphorylation enrichment of at least 0.5?
# output no
